# ASSAY NAME: Drug repurposing screens with cells derived from glioblastoma tumor samples (AID 1345199); also: % is scaled to controls: 0 for no effect and ±100 for the full control effect
# CONDITIONS USED: GBM patient neurospheres viability, ATP luminescence, 48 h; at 45.9 µM (top of the series); tumour line B
Records with an inconclusive call do not appear. Where a SMILES comes first, the peptide text is derived from it. Bridges are numbered along the chain shown (N, C = ends). [ ]: non-standard residue; d: D form. Orn = NCCC[C@H](N)C(=O)O; Mpa = O=C(O)CCS
// reported activity, negative = cell killing per item
Expressed in %, but write only the number.

Would you please look over these solved cases?
COMPOUND	UNIT	OBSERVED
CC(=O)OCC(=O)[C@@]1(O)[C@H](C)C[C@H]2[C@@H]3C[C@H](F)C4=CC(=O)C=C[C@]4(C)[C@H]3[C@@H](O)C[C@@]21C	%	1.71
CCOc1ccc(C[C@H]2NC(=O)CCSSC[C@@H](C(=O)N3CCC[C@H]3C(=O)N[C@@H](CCCN)C(=O)NCC(N)=O)NC(=O)[C@H](CC(N)=O)NC(=O)[C@H]([C@@H](C)O)NC(=O)[C@H]([C@@H](C)CC)NC2=O)cc1 ([Mpa][dY](Et)ITNCP[Orn]G-NH2; disulfide 1-6)	%	-9.93
CCC(C)(C)OC(=O)N[C@@H](Cc1c[nH]c2ccccc12)C(=O)N[C@@H](CCSC)C(=O)N[C@@H](CC(=O)O)C(=O)N[C@@H](Cc1ccccc1)C(N)=O	%	-2.77
CC(C)(C)NC(=O)[C@H]1CC[C@H]2[C@@H]3CC=C4C=C(C(=O)O)CC[C@]4(C)[C@H]3CC[C@]12C	%	-3.87

Qu. Look at this compound and give its reported activity, negative = cell killing. O=S(O)CNc1ccc(S(=O)(=O)c2ccc(NCS(=O)O)cc2)cc1
Ans. -3.7

Qu. // query activity, negative = cell killing value for entry Cc1cc(-n2c(=O)[nH]c(=O)n(C)c2=O)ccc1Oc1ccc(S(=O)(=O)C(F)(F)F)cc1
Ans. -20.8

Qu. Entry O=S(O)CO : reported activity, negative = cell killing = ?
Ans. 4.97

Qu. Entry under review: NC(=O)C[C@@H](N)C(=O)O . Reported activity, negative = cell killing?
Ans. 8.61

Qu. Using the record for O=C(O)[C@@H](O)[C@H](O)[C@H](O)[C@@H](O)C(=O)O (tested in a mixture with another compound) , report its activity, negative = cell killing.
Ans. -6.98
